Tested on: Yap1 mRNA
Assay: Antisense inhibition of human Yap1 in A-431 cells by cEt gapmers, single dose (Example 3, RTS36584)
Type: cell-based
Details: Table 8; A-431 cells, 5,000 cells per well, free uptake, 2,000 nM, approximately 48 hours; RTS36584; normalized to RIBOGREEN; Yap1 mRNA relative to untreated control cells
Strand notation (5' to 3'): a small letter for the sugar, then the base; units joined by * are phosphorothioate-linked, units joined directly phosphodiester-linked; [ ] holds rarer units or linkages, { } end groups; capitals alone tell only the bases. k = constrained ethyl (cEt); [5mC] = 5-methylcytosine; d = 2'-deoxy (DNA)
Readout label: YAP1 (% UTC)

{"Substance": "958364 (antisense k[5mC]*kA*kT*dG*dT*dT*dG*dT*dT*dG*dT*d[5mC]*dT*kG*kA*kT) [Compound 958364]", "Meas value": 19}
{"Substance": "958412 (antisense kA*k[5mC]*k[5mC]*dT*dT*dT*dA*d[5mC]*d[5mC]*dA*dA*dA*dA*k[5mC]*kG*kA) [Compound 958412]", "Meas value": 49}
{"Substance": "958422 (antisense kT*kT*kT*d[5mC]*dT*dT*dA*dA*d[5mC]*d[5mC]*dA*dG*d[5mC]*kG*kG*kA) [Compound 958422]", "Meas value": 15}
